assayName: Acute toxicity in Balb/c mice
measurementConditions: mouse, in vivo, ip, injected into the peritoneal cavity, 7-week-old females, survival over 2 weeks, suspension in 1% CMC

>  <smiles>
[C-]#[N+]C(=Cc1ccc(OC)cc1)C(=Cc1ccc(OC)cc1)[N+]#[C-]

>  <LD50 at 336 h>
> 120 mg/kg

$$$$

Reference source: patent US5312833A
